Tested on: Proto-oncogene tyrosine-protein kinase receptor Ret (Homo sapiens), P07949 [Y791F]
Sequence (P07949 whole entry Y791F): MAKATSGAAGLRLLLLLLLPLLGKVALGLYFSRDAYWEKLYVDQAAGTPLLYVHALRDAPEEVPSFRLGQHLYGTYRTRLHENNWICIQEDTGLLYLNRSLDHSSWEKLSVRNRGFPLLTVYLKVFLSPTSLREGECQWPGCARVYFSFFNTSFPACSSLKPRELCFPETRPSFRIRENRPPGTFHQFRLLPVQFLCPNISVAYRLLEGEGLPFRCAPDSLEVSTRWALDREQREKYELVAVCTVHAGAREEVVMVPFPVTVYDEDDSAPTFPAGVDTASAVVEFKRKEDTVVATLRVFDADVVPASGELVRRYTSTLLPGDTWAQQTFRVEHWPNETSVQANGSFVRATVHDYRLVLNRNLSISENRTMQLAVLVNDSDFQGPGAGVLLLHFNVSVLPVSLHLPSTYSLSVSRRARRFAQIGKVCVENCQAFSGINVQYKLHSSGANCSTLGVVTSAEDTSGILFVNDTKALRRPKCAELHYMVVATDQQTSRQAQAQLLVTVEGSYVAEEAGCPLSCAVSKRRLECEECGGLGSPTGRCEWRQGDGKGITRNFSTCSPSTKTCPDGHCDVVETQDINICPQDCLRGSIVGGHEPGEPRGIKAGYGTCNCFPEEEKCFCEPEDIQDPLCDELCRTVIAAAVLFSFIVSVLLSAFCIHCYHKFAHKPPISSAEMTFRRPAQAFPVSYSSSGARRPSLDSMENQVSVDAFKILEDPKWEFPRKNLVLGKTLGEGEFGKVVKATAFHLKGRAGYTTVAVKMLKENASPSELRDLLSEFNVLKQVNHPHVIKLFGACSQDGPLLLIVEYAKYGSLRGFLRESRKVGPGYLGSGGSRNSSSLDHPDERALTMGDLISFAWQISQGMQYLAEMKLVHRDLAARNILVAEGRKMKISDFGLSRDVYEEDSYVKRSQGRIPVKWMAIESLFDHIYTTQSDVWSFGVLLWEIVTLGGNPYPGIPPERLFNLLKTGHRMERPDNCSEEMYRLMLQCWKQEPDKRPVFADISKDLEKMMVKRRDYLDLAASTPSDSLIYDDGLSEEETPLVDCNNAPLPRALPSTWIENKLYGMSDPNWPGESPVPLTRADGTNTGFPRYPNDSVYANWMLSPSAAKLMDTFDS
Conditions: at 0.1 µM
Where inhibition equals or exceeds 8%, the correct label is 1; where it does not, the label is 0.

compound | assigned label
Cc1nn(C)c2cc(N(C)c3ccnc(Nc4cccc(S(N)(=O)=O)c4)n3)ccc12 | 1
Nc1nc(-c2ccccn2)c(-c2ccc3ncccc3n2)s1 | 0
Nc1ncnc2occ(-c3ccc(NC(=O)Nc4cccc(C(F)(F)F)c4)cc3)c12 | 1
COc1cc(C)c(NC(=O)CN(C)C)cc1Nc1nc(Nc2cccc(F)c2C(N)=O)c2cc[nH]c2n1 | 0
COc1ccc(-c2ccncc2)cc1C(N)=O | 0
CS(=O)(=O)CCN(CC#N)Cc1ccc(-c2ccc3ncnc(Nc4ccc(OCc5cccc(F)c5)c(Cl)c4)c3c2)o1 | 0
CC1=C(C(=O)Nc2ccc3[nH]ncc3c2)C(c2ccc3ccccc3c2)CC(=O)N1 (stereo not given) | 1
O=C(Nc1n[nH]c2nc(-c3ccco3)c(Br)cc12)C1CC1 | 0
COc1ccc(-c2coc3ncnc(N)c23)cc1 | 1
